test: Toxicity liver stage against HepG2, at 10uM; assay type: cell-based; set-up: test concentration 10 uM, cell line HepG2-A16-CD81EGFP; conditions: human, HepG2-A16-CD81EGFP cells; read-out: INHIBITION
MEASURED_PARAMETER: cytotoxicity at 10 µM (%)
Write it as a number; the unit % goes unstated.

Item: Cc1nc(-c2ccccc2)sc1CNC1CCc2ncnn2C1 (centres undefined) | cytotoxicity at 10 µM: -4.07

Item: `O=C(O)c1c[nH]c2cc(NS(=O)(=O)c3cccc(Cl)c3F)ccc12` | cytotoxicity at 10 µM: -10.5

Item: Cc1cc(C)n(CC(C)NCc2nncn2C2CCCCC2)n1 (centres undefined) | cytotoxicity at 10 µM: -3.26

Item: Cc1cnn(CC2CCCCN2c2nn3cc(C)nc3s2)c1 (centres undefined) | cytotoxicity at 10 µM: -18.4

Item: OC1(CNCCSc2ccccn2)CCCNC1 (centres undefined) | cytotoxicity at 10 µM: -6.46

Item: `CN(C)c1ccc(C(=O)N2CCN(c3cnccn3)CC2)cn1` | cytotoxicity at 10 µM: -4.98

Item: `Cc1nn(C)c(N(C)C)c1CNCc1cccnc1` | cytotoxicity at 10 µM: 6

Item: `CCc1ccc(CNC(=O)Nc2cc(C)on2)s1` | cytotoxicity at 10 µM: -11.6

Item: Cc1ccc(-c2nc(CN3CCCC3Cn3cc(C)cn3)no2)cc1 (centres undefined) | cytotoxicity at 10 µM: 4.07

Item: `Cc1ncc(C(=O)N2C[C@H](CO)C[C@H](CN3CCOCC3)C2)c(=O)[nH]1` | cytotoxicity at 10 µM: -10.4

Item: `CCCN(Cc1cnn(C)c1)S(=O)(=O)c1cc(C)cc(F)c1` | cytotoxicity at 10 µM: 16.2

Item: `CCc1ccc(NC(=O)N2C[C@H]3CC[C@@]4(N=C(C)N(C)C4=O)[C@H]3C2)cc1` | cytotoxicity at 10 µM: 11

Item: `CS(=O)(=O)c1nccn1CCOc1ccccc1F` | cytotoxicity at 10 µM: 4.05

Item: COc1ccc(C(C#N)NC(=O)CC2=CCCCC2)c(OC)c1 (centres undefined) | cytotoxicity at 10 µM: 10.7

Item: O=C1NCCN(Cc2ccccc2)C1CC(=O)N1CCc2n[nH]cc2C1 (centres undefined) | cytotoxicity at 10 µM: -6.73

Item: `CCc1noc(CS(=O)(=O)CC=C(C)C)n1` | cytotoxicity at 10 µM: 5.41

Item: `Cc1ccccc1CC(C)(C)NC(=O)COc1cccc(C(N)=O)c1` | cytotoxicity at 10 µM: 20.4

Item: `O=C(CSc1ccc2c(c1)OCCO2)NS(=O)(=O)c1cccs1` | cytotoxicity at 10 µM: -3.13

Item: `CCn1ccnc1CN1CCCN(C(=O)c2cnn(C)c2)CC1` | cytotoxicity at 10 µM: -7.25

Item: `Cc1ccc2c(c1)c(CNC(=O)C1CCN(CC(N)=O)CC1)nn2C` | cytotoxicity at 10 µM: -3.17

Item: `COCCN1C[C@@H](C)[C@@]2(COCCN(C(=O)c3cccs3)C2)C1` | cytotoxicity at 10 µM: 9.7

Item: `O=C(c1cnccn1)N1CCc2c(COCC3CC3)cncc2C1` | cytotoxicity at 10 µM: -72.4

Item: `Cc1ncc(CN(C)c2nc3c(cnn3C(C)(C)C)c(=O)[nH]2)s1` | cytotoxicity at 10 µM: -19.2

Item: `CC(C)N1CCO[C@H]2CN(C(=O)Cc3cccs3)C[C@H]21` | cytotoxicity at 10 µM: 7.07
